Biological target: Chromobox protein homolog 7 (Homo sapiens)
Sequence (O95931 whole entry): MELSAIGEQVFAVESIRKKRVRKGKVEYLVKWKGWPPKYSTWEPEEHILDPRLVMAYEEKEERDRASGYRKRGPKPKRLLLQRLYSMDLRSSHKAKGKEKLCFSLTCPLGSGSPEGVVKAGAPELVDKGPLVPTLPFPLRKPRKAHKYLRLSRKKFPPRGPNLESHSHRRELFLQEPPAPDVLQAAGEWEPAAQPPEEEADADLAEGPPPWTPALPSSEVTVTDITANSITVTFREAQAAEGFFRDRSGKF
pIC50: −log10 of the molar value.
Here's a roundup of pIC50 values tested on Chromobox protein homolog 7 (Homo sapiens), taken from various published works.

Some entries whose results are on file:
CCN1Cc2ccc(NC(=O)c3ccc(C(=O)N4CCC(N5CCCC5)CC4)cc3)cc2C1	< 5.00
O=C(c1ccc(C(=O)N2CCC(N3CCCC3)CC2)c(Br)c1)N1CCC(N2CCCC2)CC1	< 5.00
O=C(c1ccc(C(=O)N2CCC(N3CCCC3)C2)cc1)N1CCC(N2CCCC2)CC1 (centres undefined)	< 5.00
O=C(c1ccc(C(=O)N2CCC(C3CCCN3)CC2)cc1)N1CCC(C2CCCN2)CC1 (centres undefined)	< 5.00
O=C(c1ccc(C(=O)N2CCC(N3CCC3)CC2)cc1)N1CCC(N2CCC2)CC1	< 5.00
O=C(c1c(F)c(F)c(C(=O)N2CCC(N3CCCC3)CC2)c(F)c1F)N1CCC(N2CCCC2)CC1	< 5.00
O=C(c1ccc(C(=O)N2CCC(N3CCCC3)CC2)c([N+](=O)[O-])c1)N1CCC(N2CCCC2)CC1	< 5.00
c1cc(N2CCC(N3CCCC3)CC2)ccc1CCN1CCOCC1	< 4.52

List the reported pIC50 of each compound below.
1. O=C(c1ccc(C(=O)N2CCCC(N3CCCC3)CC2)cc1)N1CCCC(N2CCCC2)CC1 (centres undefined)
2. C[N+]1(C2CCN(C(=O)c3ccc(C(=O)N4CCC(N5CCCC5)CC4)cc3)CC2)CCCC1
3. O=C(c1ccc(C(=O)N2CCC(N3CCCC3)CC2)cc1)N1CCCC(N2CCCC2)CC1 (centres undefined)
4. OCC1(CO)CN(CCc2ccc(N3CCC(N4CCCC4)CC3)cc2)C1
5. c1cc(N2CCC(N3CCCCC3)CC2)ccc1CCN1CCCC1

[reply]
1. < 5.00
2. < 5.00
3. < 5.00
4. < 4.52
5. < 4.52

List the reported pIC50 of each compound below.
1. CN1CCN2CC(NC(=O)c3ccc(C(=O)N4CCC(N5CCCC5)CC4)cc3)CC2C1 (centres undefined)
2. O=C(c1ccc(C(=O)N2CCC(N3CCCC3)CC2)cc1)N1CCC(C2CCCN2)CC1 (centres undefined)
3. CN(C)C1CCN(C(=O)c2ccc(C(=O)N3CCC(N(C)C)CC3)cc2)CC1
4. CC(=O)N[C@@H](Cc1ccccc1)C(=O)N[C@@H](C)C(=O)N[C@@H](CC(C)C)C(=O)N[C@@H](CCCC[N+](C)(C)C)C(=O)N[C@@H](CO)C(N)=O
5. O=C(NCCCN1CCCC1)c1ccc(C(=O)N2CCC(N3CCCC3)CC2)cc1
6. O=C(c1ccc(C(=O)N2CCC(N3CCOCC3)CC2)cc1)N1CCC(N2CCCC2)CC1

[reply]
1: < 5.00; 2: < 5.00; 3: < 5.00; 4: 4.96; 5: < 5.00; 6: < 5.00
